All values here come from patent US11254686B1.

measurement.target: UniProt P29274
Sequence (P29274 whole entry): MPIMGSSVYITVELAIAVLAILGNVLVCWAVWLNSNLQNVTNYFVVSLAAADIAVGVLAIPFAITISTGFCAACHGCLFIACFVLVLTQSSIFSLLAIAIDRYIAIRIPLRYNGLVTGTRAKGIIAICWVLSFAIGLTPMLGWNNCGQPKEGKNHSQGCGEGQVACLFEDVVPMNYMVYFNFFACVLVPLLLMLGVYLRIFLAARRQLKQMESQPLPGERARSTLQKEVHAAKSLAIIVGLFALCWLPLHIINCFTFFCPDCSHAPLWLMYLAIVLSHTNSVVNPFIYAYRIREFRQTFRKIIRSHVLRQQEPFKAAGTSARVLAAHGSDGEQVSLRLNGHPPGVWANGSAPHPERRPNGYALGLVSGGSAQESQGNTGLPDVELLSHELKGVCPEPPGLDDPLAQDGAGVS
experiment.description: Adenosine receptor activity assay (Table 1), A2A activity
Assay type: biochemical
reported.conditions: read-out: Ave A2A cAMP IC50
pIC50: −log10 of the molar value.
Overview of recorded pIC50 for various compounds

The following compounds have reported results that may help.
O=C(c1nc(NCc2cccc(Cl)c2)nc2ccsc12)N1CC[C@@H](O)C1
< 6.30
CCNC(=O)C1CCN(C(=O)c2nc(N[C@@H](C)c3cncc(F)c3)nc3ccsc23)C1 (some centres unmarked)
6.30 to 7.00
Cc1cc2nc(N[C@@H](C)c3cncc(F)c3)nc(C(=O)NC[C@H]3CCOC3)c2s1
6.30 to 7.00

Query: Would you mind telling me what pIC50 value was observed for CC(C)(C)OC(=O)N1CCN(C(=O)c2nc(NCc3cncc(F)c3)nc3ccsc23)C1 ?
Reply: < 6.30

Query: Would you mind telling me what pIC50 value was observed for C[C@H](Nc1nc(C(=O)N2CCC(C)(C)C2)c2sccc2n1)c1cccnc1 ?
Reply: 6.30 to 7.00
